Experiment: Cytotoxicity against HELF cells assessed as after 3 days by Coulter counting analysis
Type: cell-based
Conditions: human, helf, 72 h
# maps each entry to its CC50
measurement-type: CC50

compound | result
C[C@H](NC(=O)[C@]1(Cc2ccccc2)CCN1C(=O)Oc1ccccc1)C(N)=O | > 100 µM
NCCCC[C@H](NC(=O)C1(Cc2ccccc2)CCN1C(=O)OCc1ccccc1)C(N)=O (mixture of isomers) | > 100 µM
C[C@H](NC(=O)[C@]1(Cc2ccccc2)CCN1C(=O)OCc1ccccc1)C(=O)NC1CCCCC1 | > 100 µM
CC(C)CNC(=O)[C@H](C)NC(=O)[C@]1(Cc2ccccc2)CCN1C(=O)OCc1ccccc1 | > 100 µM
C[C@H](NC(=O)[C@]1(Cc2ccccc2)CCN1C(=O)Oc1cccc2ccccc12)C(N)=O | > 100 µM
C[C@H](NC(=O)[C@H](Cc1ccccc1)NC(=O)OCc1ccccc1)C(N)=O | > 100 µM
NC(=O)[C@H](Cc1ccccc1)NC(=O)[C@]1(Cc2ccccc2)CCN1C(=O)OCc1ccccc1 | 33 µM
C[C@H](NC(=O)[C@@]1(Cc2ccccc2)CCN1C(=O)OCc1ccccc1)C(=O)NC1CCCCC1 | 46 µM
Nc1nc(O)c2ncn(COC(CO)CO)c2n1 | 580 µM
C[C@H](NC(=O)[C@]1(Cc2ccccc2)CCN1C(=O)OCc1ccccc1)C(N)=O | 50 µM
Nc1nc2c(ncn2COCCO)c(=O)[nH]1 | > 1780 µM

###

# maps each entry to its MCC at 72 h
Test: Cytotoxicity against HELF cells assessed as after 3 days by Coulter counting analysis
Assay type: cell-based
Conditions: human, HELF cells

compound | MCC at 72 h
C[C@H](NC(=O)[C@]1(Cc2ccccc2)CCN1C(=O)NCc1ccccc1)C(N)=O | > 100 µM
NCCCC[C@H](NC(=O)C1(Cc2ccccc2)CCN1C(=O)OCc1ccccc1)C(N)=O (mixture of isomers) | > 100 µM
C[C@H](NC(=O)[C@@]1(Cc2ccccc2)CCN1C(=O)OCc1ccccc1)C(=O)NC(C)(C)C (mixture of isomers) | > 100 µM
C[C@H](NC(=O)[C@@]1(Cc2ccccc2)CCN1C(=O)OCc1ccccc1)C(=O)NC1CCCCC1 | 100 µM
C[C@H](NC(=O)[C@]1(Cc2ccccc2)CCN1C(=O)Oc1ccccc1)C(N)=O | > 100 µM
C[C@@H](NC(=O)[C@@]1(Cc2ccccc2)CCN1C(=O)OCc1ccccc1)C(N)=O | > 100 µM
C[C@H](NC(=O)[C@@]1(Cc2ccccc2)CCN1C(=O)OCc1ccccc1)C(=O)N(C)C | > 100 µM
C[C@H](NC(=O)[C@]1(Cc2ccccc2)CCN1C(=O)OCc1ccccc1)C(N)=O | > 50 µM
C[C@H](NC(=O)[C@]1(Cc2ccccc2)CCN1C(=O)OCc1ccc([N+](=O)[O-])cc1)C(N)=O | 100 µM
C[C@H](NC(=O)[C@]1(Cc2ccccc2)CCN1C(=O)OCc1ccccc1)C(=O)NCc1ccccc1 | 100 µM
CC(C)CNC(=O)[C@H](C)NC(=O)[C@@]1(Cc2ccccc2)CCN1C(=O)OCc1ccccc1 | > 100 µM
C[C@H](NC(=O)[C@]1(Cc2ccccc2)CCN1C(=O)OCc1ccccc1)C(=O)NC(C)(C)C | > 100 µM
C[C@H](NC(=O)[C@H](Cc1ccccc1)NC(=O)OCc1ccccc1)C(=O)NC(C)(C)C | > 100 µM
Nc1nc(O)c2ncn(COC(CO)CO)c2n1 [GANCICLOVIR] | ≥ 1580 µM
C[C@H](NC(=O)[C@]1(Cc2ccccc2)CCN1C(=O)OCc1ccccc1Cl)C(N)=O | > 100 µM
C[C@H](NC(=O)[C@]1(Cc2ccccc2)CCN1C(=O)OCc1ccccc1)C(=O)N(C)C | > 100 µM
